Could you please report measured pH at 24 h for the items listed next?
assay: Solubility in Simulated Fluids at 37° C.; type: physicochemical; settings: Water, initial pH 7.00

[in] So what's the measured pH at 24 h for this one? COc1cc(C)c2[nH]ccc2c1CN1CCC2(C[C@H]1c1ccc(C(=O)O)cc1)CC(F)(F)C2.Cc1ccc(S(=O)(=O)O)cc1 [Form C]
[out] 3.37

[in] Recorded pH at 24 h for COc1cc(C)c2[nH]ccc2c1CN1CCC2(C[C@H]1c1ccc(C(=O)O)cc1)CC(F)(F)C2.Cc1ccc(S(=O)(=O)O)cc1 [Form B] , please?
[out] 3.60

[in] Sample COc1cc(C)c2[nH]ccc2c1CN1CCC2(C[C@H]1c1ccc(C(=O)O)cc1)CC(F)(F)C2 [Form A] — what was its pH at 24 h?
[out] 7.12

[in] Which pH at 24 h value belongs to COc1cc(C)c2[nH]ccc2c1CN1CCC2(C[C@H]1c1ccc(C(=O)O)cc1)CC(F)(F)C2.Cl [Form D] ?
[out] 3.13
